Reported drug sensitivity score by item:
test system: IMC-1 (IL-2 20 ng/mL); experiment: drug sensitivity score (DSS) (DSS units); higher = more sensitive; extreme values may be limits of the assay; settings: 72 h
Answer as a number with no unit attached.

NC(=O)N1CCC(CC(=O)N2CCC([C@H]3c4ncc(Br)cc4CCc4cc(Cl)cc(Br)c43)CC2)CC1 [Lonafarnib] (max concentration tested 10000 nM)
1.66
O=P1(N(CCCl)CCCl)NCCCO1 (stereo not drawn) [Cyclophosphamide] (max concentration tested 40000 nM)
0

# ---- query molecule ----
What the record says about COc1cc2nccc(Oc3ccc(NC(=O)Nc4cc(C)on4)c(Cl)c3)c2cc1OC [Tivozanib] (max concentration tested 10000 nM) : drug sensitivity score is 1.23
